Assay: Plasma protein binding in mouse at 1 ug/ml after 30 mins
Type: ADME, cell-free
Conditions: read-out: PPB (converted)
Catalogue of compounds with associated fraction unbound at 0.5 h, 1 ug/ml
Give only the figure.

Chemical Structure | Reading
CC[C@H]1OC(=O)[C@H](C)[C@@H](O[C@H]2C[C@@](C)(OC)[C@@H](O)[C@H](C)O2)[C@H](C)[C@@H](O[C@@H]2O[C@H](C)C[C@H](N(C)C)[C@H]2O)[C@](C)(O)C[C@@H](C)CN(CCCNCc2ccnc3ccccc23)[C@H](C)[C@@H](O)[C@]1(C)O | 0.57

Now for the compound whose fraction unbound at 0.5 h, 1 ug/ml we want.
Can you look up the measured fraction unbound at 0.5 h, 1 ug/ml of "CC[C@H]1OC(=O)[C@H](C)[C@@H](O[C@H]2C[C@@](C)(OC)[C@@H](O)[C@H](C)O2)[C@H](C)[C@@H](O[C@@H]2O[C@H](C)C[C@H](N(C)C)[C@H]2O)[C@](C)(O)C[C@@H](C)CN(CCC(=O)N[C@H](C)c2cccc3ccccc23)[C@H](C)[C@@H](O)[C@]1(C)O" for me?
0.13

* * *

Tested on: Mus musculus
Assay: Unbound clearance in CD1 mouse at 5 mg/kg, iv
Type: ADME, organism-based
Set-up: dose 5 mg/kg, route intravenous
Conditions: in vivo
Mark Y only when CL free stays strictly below 20 mL/min/kg. Values equal to the cut-off are N.

Solved entries (count: 4):
Chemical Structure | Measured On | Assigned Category
CC[C@H]1OC(=O)[C@H](C)[C@@H](O[C@H]2C[C@@](C)(OC)[C@@H](O)[C@H](C)O2)[C@H](C)[C@@H](O[C@@H]2O[C@H](C)C[C@H](N(C)C)[C@H]2O)[C@](C)(O)C[C@@H](C)CN(CCCNC(=O)CCc2ccccc2)[C@H](C)[C@@H](O)[C@]1(C)O | Mus musculus | N
CC[C@H]1OC(=O)[C@H](C)[C@@H](O[C@H]2C[C@@](C)(OC)[C@@H](O)[C@H](C)O2)[C@H](C)[C@@H](O[C@@H]2O[C@H](C)C[C@H](N(C)C)[C@H]2O)[C@](C)(O)C[C@@H](C)CN(CCCNCc2ccnc3ccccc23)[C@H](C)[C@@H](O)[C@]1(C)O | Mus musculus | Y
CC[C@H]1OC(=O)[C@H](C)[C@@H](O[C@H]2C[C@@](C)(OC)[C@@H](O)[C@H](C)O2)[C@H](C)[C@@H](O[C@@H]2O[C@H](C)C[C@H](N(C)C)[C@H]2O)[C@](C)(O)C[C@@H](C)CN(C)[C@H](C)[C@@H](O)[C@]1(C)O | Mus musculus | N
CC[C@H]1OC(=O)[C@H](C)[C@@H](O[C@H]2C[C@@](C)(OC)[C@@H](O)[C@H](C)O2)[C@H](C)[C@@H](O[C@@H]2O[C@H](C)C[C@H](N(C)C)[C@H]2O)[C@](C)(O)C[C@@H](C)CN(CCC(=O)N[C@H](C)c2cccc3ccccc23)[C@H](C)[C@@H](O)[C@]1(C)O | Mus musculus | N

Now, please, on to the next compound.
Hello, I'm reviewing records and need to know if CL free of "CC[C@H]1OC(=O)[C@H](C)[C@@H](O[C@H]2C[C@@](C)(OC)[C@@H](O)[C@H](C)O2)[C@H](C)[C@@H](O[C@@H]2O[C@H](C)C[C@H](N(C)C)[C@H]2O)[C@](C)(O)C[C@@H](C)CN(CCCNc2ccnc3cc(Cl)ccc23)[C@H](C)[C@@H](O)[C@]1(C)O" is below 20 mL/min/kg. Could you check?
Y
